Test: Biodistribution in rats
Assay type: in vivo, male rats
Details: 60 min post-injection, i.v.
Binary label based on Gut with cut-off 30 percent injected dose: below gives y, not below gives n.

compound	discrete label
CC(=NO)C(C)(C)NCCCCCNC(C)(C)C(Cn1ccnc1[N+](=O)[O-])=NO [Compound IV]	n
CCC(=NO)C(C)(C)NCCCCNC(C)(C)C(CC)=NO [Compound VIII]	n
CCC(=NO)C(C)(C)NCCCCNC(C)(C)C=NO [Compound VII]	y

Lab note: confirm whether the reported Gut for this compound is below 30 percent injected dose, equality not counting. compound: CCC(=NO)C(C)(C)NCCCCNC(C)(C)C(C)=NO [Compound IX] n

Lab note: confirm whether the reported Gut for this compound is below 30 percent injected dose, equality not counting. compound: CC(=NO)C(C)(C)NCCCCNC(C)(C)C(C)=NO [Compound I] y

Reference for the values: patent US5997843A
